System: Staphylococcus saprophyticus
Test: Antibacterial activity against Staphylococcus saprophyticus ATCC 15305 after 24 hrs
Type: functional
Settings: ATCC 15305, 24 h
Positions of bridges follow the written chain, without caps; N, C: chain ends. Non-standard residues stand in square brackets, D forms with d. Residues, ends and D or L forms follow the SMILES beside them. dNMeF = CN[C@H](Cc1ccccc1)C(=O)O
Listed here: items and their measured MIC.

Below: 2 molecules and their reported MIC.
molecule	MIC
CC[C@@H](C)[C@@H](NC(=O)[C@@H](CCC(N)=O)NC(=O)[C@H](CCCNC(=N)N)NC(=O)[C@@H](NC(=O)[C@@H](Cc1ccccc1)NC)[C@@H](C)CC)C(=O)N[C@H](C(=O)N[C@@H](CO)C(=O)N[C@H]1C(=O)N[C@@H](C)C(=O)N[C@@H](CC(C)C)C(=O)N[C@@H]([C@@H](C)CC)C(=O)O[C@H]1C)[C@@H](C)CC (H-[dNMeF]IR[dQ][dI]IS[dT]ALI; ester 8-C)	< 0.0625 µg/mL
CC[C@@H](C)[C@@H](NC(=O)[C@@H](CCC(N)=O)NC(=O)[C@H](CO)NC(=O)[C@@H](NC(=O)[C@@H](Cc1ccccc1)NC)[C@@H](C)CC)C(=O)N[C@H](C(=O)N[C@@H](CO)C(=O)N[C@H]1C(=O)N[C@@H](CCCNC(=N)N)C(=O)N[C@@H]([C@@H](C)CC)C(=O)N[C@@H]([C@@H](C)CC)C(=O)O[C@H]1C)[C@@H](C)CC	< 0.0625 µg/mL

Now consider the entry below.
Record CC[C@@H](C)[C@@H](NC(=O)[C@@H](CCCNC(=N)N)NC(=O)[C@H](CCCNC(=N)N)NC(=O)[C@@H](NC(=O)[C@@H](Cc1ccccc1)NC)[C@@H](C)CC)C(=O)N[C@H](C(=O)N[C@@H](CO)C(=O)N[C@H]1C(=O)N[C@@H](C)C(=O)N[C@@H](CC(C)C)C(=O)N[C@@H]([C@@H](C)CC)C(=O)O[C@H]1C)[C@@H](C)CC (H-[dNMeF]IR[dR][dI]IS[dT]ALI; ester 8-C) ; system Staphylococcus saprophyticus; MIC = < 0.0625 µg/mL

====

Tested on: Staphylococcus aureus
Test: Antibacterial activity against Staphylococcus aureus ATCC 29213 after 24 hrs
Assay type: functional
Conditions: ATCC 29213, 24 h
Positions of bridges follow the written chain, without caps; N, C: chain ends. Non-standard residues stand in square brackets, D forms with d. Residues, ends and D or L forms follow the SMILES beside them. dNMeF = CN[C@H](Cc1ccccc1)C(=O)O
Listed here: items and their measured MIC.
State just the number; it will be interpreted in µg/mL.

compound	MIC, µg/mL
CC[C@@H](C)[C@@H](NC(=O)[C@@H](CCC(N)=O)NC(=O)[C@H](CCCNC(=N)N)NC(=O)[C@@H](NC(=O)[C@@H](Cc1ccccc1)NC)[C@@H](C)CC)C(=O)N[C@H](C(=O)N[C@@H](CO)C(=O)N[C@H]1C(=O)N[C@@H](C)C(=O)N[C@@H](CC(C)C)C(=O)N[C@@H]([C@@H](C)CC)C(=O)O[C@H]1C)[C@@H](C)CC (H-[dNMeF]IR[dQ][dI]IS[dT]ALI; ester 8-C)	0.25
CC[C@@H](C)[C@@H](NC(=O)[C@@H](CCC(N)=O)NC(=O)[C@H](CO)NC(=O)[C@@H](NC(=O)[C@@H](Cc1ccccc1)NC)[C@@H](C)CC)C(=O)N[C@H](C(=O)N[C@@H](CO)C(=O)N[C@H]1C(=O)N[C@@H](CCCNC(=N)N)C(=O)N[C@@H]([C@@H](C)CC)C(=O)N[C@@H]([C@@H](C)CC)C(=O)O[C@H]1C)[C@@H](C)CC	1

Now consider the entry below.
For record "CC[C@@H](C)[C@@H](NC(=O)[C@@H](CCCNC(=N)N)NC(=O)[C@H](CO)NC(=O)[C@@H](NC(=O)[C@@H](Cc1ccccc1)NC)[C@@H](C)CC)C(=O)N[C@H](C(=O)N[C@@H](CO)C(=O)N[C@H]1C(=O)N[C@@H](C)C(=O)N[C@@H]([C@@H](C)CC)C(=O)N[C@@H]([C@@H](C)CC)C(=O)O[C@H]1C)[C@@H](C)CC" the listed MIC is 0.0625

Provenance of the data: ChEMBL document CHEMBL4020828
